# system: Luciferin 4-monooxygenase (Photinus pyralis)
# procedure summary: firefly luciferase enzyme inhibitors, primary screen, biochemical, luminescence, purified enzyme, 2006 set (AID 1141);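 also: cell-free assay with purified firefly luciferase at 100 ng per well in PBS; test concentration not given here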
# measurement context: SteadyGlo luminescence, 30 min, higher = more signal, called active from +8 up or from −8 down
z-score overview
// keep it numeric: no unit symbol after the value

1) CC(C)CCN1CCc2nc(-c3ccccc3)c3c(c2C1)CO[C@@H](C)C3
-1.17
2) COC(=O)[C@H](C)NC(=O)CCC1CC(OC(=O)NCCc2ccc(F)cc2)CC2(CCCC(COC(=O)NCCCN3CCCC3=O)O2)O1 (stereo partly specified)
0.824

### Prompt Name the recorded z-score for `C[C@@H]1CC[C@@H](C(=O)O)N[C@H]1c1ccc(-c2ccco2)cc1` .
### Response -0.906

### Prompt Name the recorded z-score for `C=C(C)C(=O)OC[C@@H]1CN2[C@@H](CC[C@@H](C)[C@@H]2c2ccc(Br)cc2)C(=O)O1` .
### Response -0.721

### Prompt Name the recorded z-score for CCOC(=O)[C@H](CC(C)C)NC(=O)CCC1CC(OC(=O)NCc2cccc3ccccc23)CC2(CCCC(COC(=O)NCc3ccccc3)O2)O1 (stereo partly specified) .
### Response 0.529

### Prompt Name the recorded z-score for `CO[C@H]1COC(=O)CC=C[C@@H](C)COC(=O)[C@@H](OCc2ccccc2)C=C[C@@H]1C` .
### Response -0.917

###

# system: Dihydroorotate dehydrogenase (quinone), mitochondrial (Plasmodium falciparum (isolate 3D7)) (UniProt Q08210)
# Sequence (Q08210 whole entry, looked up): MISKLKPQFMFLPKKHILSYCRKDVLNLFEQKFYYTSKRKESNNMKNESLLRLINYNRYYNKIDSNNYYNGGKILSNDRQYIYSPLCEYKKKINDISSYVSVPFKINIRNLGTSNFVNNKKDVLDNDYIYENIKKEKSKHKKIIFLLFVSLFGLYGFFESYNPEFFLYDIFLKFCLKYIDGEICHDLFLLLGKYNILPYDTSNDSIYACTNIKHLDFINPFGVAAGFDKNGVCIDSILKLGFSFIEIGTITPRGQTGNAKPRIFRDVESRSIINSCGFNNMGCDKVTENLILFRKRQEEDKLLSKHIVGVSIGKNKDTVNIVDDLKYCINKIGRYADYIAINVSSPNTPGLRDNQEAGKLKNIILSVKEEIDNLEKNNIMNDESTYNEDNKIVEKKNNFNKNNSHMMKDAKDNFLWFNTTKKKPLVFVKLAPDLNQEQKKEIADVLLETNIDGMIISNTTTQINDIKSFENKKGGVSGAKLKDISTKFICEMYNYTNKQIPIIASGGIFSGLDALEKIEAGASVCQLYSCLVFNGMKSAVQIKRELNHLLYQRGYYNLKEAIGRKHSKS
# procedure summary: PfDHODH enzyme inhibitors, primary screen, biochemical, C-terminal His tag, absorbance 600 nm (AID 1175);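 also: recombinant parasite enzyme with a five histidine tag at its C terminus; test concentration not given here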
# measurement context: DCIP absorbance 600 nm, higher = more signal, called active from +8 up or from −8 down
Calls of active or inactive are those of the source.
value kind: composite z-score

### Prompt Name the recorded composite z-score for `C[C@@H](c1ccccc1)N1C(=O)[C@H]2[C@H]3[C@H](O)[C@H](O)CC(=O)[C@@H]3CC[C@H]2C1=O` .
### Response -1.59 (inactive)

###

# system: E3 ubiquitin-protein ligase XIAP (Homo sapiens)
# procedure summary: XIAP binders, primary screen, biophysical, small-molecule microarray, fluorescence 635 nm (AID 1181);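 also: score merges 667 nm emission and signal to noise over triplicate slides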
# measurement context: small-molecule microarray binding, higher = more signal
composite z-score overview

1. C[C@@H]1CC[C@@H](C(=O)O)N[C@H]1c1ccc(-c2ccco2)cc1
0.012

Continue with the molecule presented below.
### Prompt Name the recorded composite z-score for `C[C@@H](c1ccccc1)N1C(=O)[C@H]2[C@H]3[C@H](O)[C@H](O)CC(=O)[C@@H]3CC[C@H]2C1=O` .
### Response -0.163

###

# procedure summary: fission yeast growth modulation, primary screen, strain 972, OD600, 24 h, no modulator (AID 1090);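 also: basal condition with compound alone and no growth modifier present; test concentration not given here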
# measurement context: S. pombe 972 growth, higher = more signal, called active from +8 up or from −8 down
z-score overview
// keep it numeric: no unit symbol after the value

Consider the reported z-score for these compounds:
1. COc1ccc(COC(=O)NN=C2C[C@@H](O)[C@@H](O)[C@@H]3[C@@H]4C(=O)N(C(C)(C)C)C(=O)[C@@H]4CC[C@H]23)cc1
-1.05
2. Cc1ccc(S(=O)(=O)N[C@H]2COC(=O)[C@@H](C)COC(=O)[C@H](C)NC(=O)CC=C[C@H]2C)cc1
-0.838
3. CCOC(=O)[C@H](CC(C)C)NC(=O)CCC1CC(OC(=O)NCc2cccc3ccccc23)CC2(CCCC(COC(=O)NCc3ccccc3)O2)O1 (stereo partly drawn)
-0.0838

### Prompt Name the recorded z-score for `CCOC(=O)NN=C1C[C@@H](O)[C@@H](O)[C@@H]2[C@@H]3C(=O)N(Cc4ccccc4)C(=O)[C@@H]3CC[C@@H]12` .
### Response 0.117

### Prompt Name the recorded z-score for `CCCNC(=O)OC[C@H]1O[C@H](CCON=C(C)CCC(=O)OC[C@H]2O[C@H](C#Cc3ccccc3)C=C[C@@H]2Oc2ccc(C)cc2)C=C[C@@H]1Oc1ccc(OC)cc1` .
### Response -0.0152

### Prompt Name the recorded z-score for `C[C@@H](ON=C1[C@H]2CCn3c(=O)n(-c4ccccc4)c(=O)n3[C@H]2[C@H](O)[C@@H]2O[C@H]12)c1cn([C@H](CO)Cc2ccccc2)nn1` .
### Response -0.165

### Prompt Name the recorded z-score for Cc1cc2c(nc1C)CCCN2CC(C)ON=C[C@@H](C)[C@H](OCc1ccccc1)C(C)C (stereo partly drawn) .
### Response 0.514

### Prompt Name the recorded z-score for `C=C(C)C(=O)OC[C@@H]1CN2[C@@H](CC[C@@H](C)[C@@H]2c2ccc(Br)cc2)C(=O)O1` .
### Response -2.7

### Prompt Name the recorded z-score for `CCOC(=O)CCN1C(=O)[C@H]2[C@H]3[C@H](O)[C@H](O)CC(=NNC(=O)OCC)[C@@H]3CC[C@H]2C1=O` .
### Response -0.769

### Prompt Name the recorded z-score for `CCOC(=O)NN=C1C[C@@H](O)[C@@H](O)[C@@H]2[C@@H]3C(=O)N(Cc4ccc5c(c4)OCO5)C(=O)[C@@H]3CC[C@@H]12` .
### Response -0.117
